measured target: T1, soluble human FcRn (shFcRn) (human, UniProt P55899 24-297; P61769 21-119)
T1 construct: Biotinylated for the ELISA, amine-coupled to a CM5 chip for SPR; also called biotinylated shFcRn
T1 sequence (P55899 24-297 limits assumed, chain 1 of 2): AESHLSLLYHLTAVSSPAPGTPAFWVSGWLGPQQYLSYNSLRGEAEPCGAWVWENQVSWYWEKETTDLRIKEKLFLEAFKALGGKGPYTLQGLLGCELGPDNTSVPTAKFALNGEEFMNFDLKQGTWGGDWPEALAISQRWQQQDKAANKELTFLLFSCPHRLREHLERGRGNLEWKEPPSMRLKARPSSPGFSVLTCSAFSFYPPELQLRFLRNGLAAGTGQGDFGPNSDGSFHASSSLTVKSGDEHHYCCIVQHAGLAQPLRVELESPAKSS
T1 sequence (P61769 21-119 limits assumed, chain 2 of 2): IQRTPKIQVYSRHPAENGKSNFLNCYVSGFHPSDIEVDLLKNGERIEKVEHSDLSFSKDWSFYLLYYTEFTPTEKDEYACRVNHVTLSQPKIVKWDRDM
assay details: IgG competition ELISA
Bridge positions count the residues as written; N and C are the ends. Square brackets hold non-standard residues; d marks the D form. Ends that are not written are not given here. NMeL = CN[C@@H](CC(C)C)C(=O)O; Pen = CC(C)(S)[C@H](N)C(=O)O
reported metric: pIC50
Scale explanation: pIC50 corresponds to minus log10 of a concentration expressed in moles per litre.

Measured pIC50 of RF[Pen]TGHFGG[NMeL]YPCNGP-NH2 (disulfide 3-13; N-terminus assumed; SMILES CC(C)C[C@H]1C(=O)N[C@@H](Cc2ccc(O)cc2)C(=O)N2CCC[C@H]2C(=O)N[C@H](C(=O)N[C@@H](CC(N)=O)C(=O)NCC(=O)N2CCC[C@H]2C(N)=O)CSSC(C)(C)[C@H](NC(=O)[C@H](Cc2ccccc2)NC(=O)[C@@H](N)CCCNC(=N)N)C(=O)N[C@@H]([C@@H](C)O)C(=O)NCC(=O)N[C@@H](Cc2c[nH]cn2)C(=O)N[C@@H](Cc2ccccc2)C(=O)NCC(=O)NCC(=O)N1C) [Peptide No. 146] : 5.68
